target: CaRvs167-3
assay details: SPOT peptide array binding signal intensity (averaged, normalized) (arbitrary units (background-subtracted, floor 0; scale differs between SH3 domains)); higher = stronger binding of the SH3 domain to the peptide
Note to self: values exactly at 60 are Satisfied. So SPOT peptide array binding signal intensity at or above 60 is Satisfied, below is Not satisfied.

Ask: Evaluate QQEQNTPPLPPKPKS : SPOT peptide array binding signal intensity at minimum 60?
Result: Not satisfied

Ask: Evaluate VRVKKRPLIRPLNSS : SPOT peptide array binding signal intensity at minimum 60?
Result: Satisfied

Ask: Evaluate RRRIAYPFYPFKKLG : SPOT peptide array binding signal intensity at minimum 60?
Result: Satisfied

Ask: Evaluate AAAPKHAPPPVPNET : SPOT peptide array binding signal intensity at minimum 60?
Result: Not satisfied

Ask: Evaluate APPPPPRRATPEKKP : SPOT peptide array binding signal intensity at minimum 60?
Result: Not satisfied

Ask: Evaluate IKTRSVPKIPSIESV : SPOT peptide array binding signal intensity at minimum 60?
Result: Not satisfied

Ask: Evaluate SLSRRRFSLPSMPNV : SPOT peptide array binding signal intensity at minimum 60?
Result: Satisfied

Ask: Evaluate RKRRTHLRLPLIRSN : SPOT peptide array binding signal intensity at minimum 60?
Result: Not satisfied

Ask: Evaluate RLSRLLLSLPPESFT : SPOT peptide array binding signal intensity at minimum 60?
Result: Satisfied

Ask: Evaluate WTQRRGPLVVYAEDN : SPOT peptide array binding signal intensity at minimum 60?
Result: Not satisfied

Ask: Evaluate KIRRSSLMIPNPQQF : SPOT peptide array binding signal intensity at minimum 60?
Result: Not satisfied

Ask: Evaluate PPPPPPPPPPLPQSL : SPOT peptide array binding signal intensity at minimum 60?
Result: Not satisfied

Ask: Evaluate ERPKRRAPPPVPKKP : SPOT peptide array binding signal intensity at minimum 60?
Result: Not satisfied

Ask: Evaluate SSTPTTPERPKRKSG : SPOT peptide array binding signal intensity at minimum 60?
Result: Not satisfied

Ask: Evaluate TKPTPPPKPSHLKPK : SPOT peptide array binding signal intensity at minimum 60?
Result: Not satisfied
